A collection of molecules and their measured TGI
- System: SK-MEL-28 melanoma
- assayOverview: NCI tumour cell line growth inhibition, 48 h
valueKind: TGI (µM)

- entrySmiles: "Cn1c(=O)c(Oc2cccc(F)c2)cc2cnc(NC3CCOCC3)nc21"
  targetDesc: "SK-MEL-28 melanoma"
  unitOfMeasure: "µM"
  cmp: ">"
  endpointValue: 25
- entrySmiles: "CC(=N\\O)/C(C)=N/O.CC(=N\\O)/C(C)=N/O.CC(=N\\O)/C(C)=N/O.CC(=N\\O)/C(C)=N/O.[Cu].[Cu]"
  targetDesc: "SK-MEL-28 melanoma"
  unitOfMeasure: "µM"
  cmp: "="
  endpointValue: 35.4
- entrySmiles: "COC(=O)c1ccccc1C#CCCCOS(C)(=O)=O"
  targetDesc: "SK-MEL-28 melanoma"
  unitOfMeasure: "µM"
  cmp: ">"
  endpointValue: 10
- entrySmiles: "Cc1[nH]c(C(=O)Nc2ccc(C(=O)N3CCNCC3)cc2OC(C)C)c(Cl)c1Cl"
  targetDesc: "SK-MEL-28 melanoma"
  unitOfMeasure: "µM"
  cmp: "="
  endpointValue: 3.24
- entrySmiles: "O=C1CSC2=NCC3(NN12)c1ccccc1-c1ccccc13"
  targetDesc: "SK-MEL-28 melanoma"
  unitOfMeasure: "µM"
  cmp: ">"
  endpointValue: 10
